Here, each record is paired with measured Quantity of drug impregnated by scCO2 data.
Assay: Quantity of drug impregnated in stents by scCO2 (UV-spectroscopy after degradation in AUS)
Assay type: physicochemical
Settings: Drugbio: BUS without co-solvent; 90 min, 100 bar, 40° C.
Protocol: In an embodiment, a supercritical CO2 impregnation of anti-cancer drugs was performed, in the biodegradable ureteral stents (BUS) of the present disclosure. […] The anticancer drugs impregnation yield (I) was calculated from Eq. (1): I(%)=mdrug/mstent+mdrug×100 Eq. (1) where mstent is the polymer mass at the beginning of the process and the mdrug is the mass of the respective anticancer drug released after complete degradation of the stents in AUS. […]
Kindly provide the numeric value in μgdrug/mgpolymer only, without the unit symbol.

CC(=O)O[C@H]1C(=O)[C@@]2(C)[C@H]([C@H](OC(=O)c3ccccc3)[C@]3(O)C[C@H](OC(=O)[C@H](O)[C@@H](NC(=O)c4ccccc4)c4ccccc4)C(C)=C1C3(C)C)[C@]1(OC(C)=O)CO[C@@H]1C[C@@H]2O : 0.046
Nc1ccn([C@@H]2O[C@H](CO)[C@@H](O)C2(F)F)c(=O)n1 : 18.183
COc1cccc2c1C(=O)c1c(O)c3c(c(O)c1C2=O)C[C@@](O)(C(=O)CO)C[C@@H]3O[C@H]1C[C@H](N)[C@H](O)[C@H](C)O1 : 3.297

Consider the additional compound presented here.
Consider COc1cccc2c1C(=O)c1c(O)c3c(c(O)c1C2=O)C[C@@](O)(C(=O)CO)C[C@@H]3O[C@H]1C[C@H](N)[C@@H](O)[C@H](C)O1 [Epirubicin, epirubicin] . Its measured Quantity of drug impregnated by scCO2 is 1.498

---

Tested on: T24 cells (human urothelial carcinoma cell line)
Assay: MTT cell viability, free anti-cancer drugs, IC50 determination in T24 cells
Type: cell-based
Details: T-24, 72 h exposure
measured.parameter: IC50 (µg/mL)
Kindly provide the numeric value in µg/mL only, without the unit symbol.

Nc1ccn([C@@H]2O[C@H](CO)[C@@H](O)C2(F)F)c(=O)n1 [Gemcitabine, gemcitabine] : 0.89
COc1cccc2c1C(=O)c1c(O)c3c(c(O)c1C2=O)C[C@@](O)(C(=O)CO)C[C@@H]3O[C@H]1C[C@H](N)[C@@H](O)[C@H](C)O1 [Epirubicin, epirubicin] : 15.7
CC(=O)O[C@H]1C(=O)[C@@]2(C)[C@H]([C@H](OC(=O)c3ccccc3)[C@]3(O)C[C@H](OC(=O)[C@H](O)[C@@H](NC(=O)c4ccccc4)c4ccccc4)C(C)=C1C3(C)C)[C@]1(OC(C)=O)CO[C@@H]1C[C@@H]2O [Paclitaxel, paclitaxel] : 0.0073

Consider the additional molecule presented here.
Entry COc1cccc2c1C(=O)c1c(O)c3c(c(O)c1C2=O)C[C@@](O)(C(=O)CO)C[C@@H]3O[C@H]1C[C@H](N)[C@H](O)[C@H](C)O1 [Doxorubicin, doxorubicin] , tested on T24 cells (human urothelial carcinoma cell line), has a reported IC50 of 29.3
